Taken from paper PMC10786891.

- Assayed system: T1, EsCas13d, nuclease-dead (Eubacterium siraeum, UniProt B0MS50, R295A;H300A;R849A;H854A)
- T1 sequence: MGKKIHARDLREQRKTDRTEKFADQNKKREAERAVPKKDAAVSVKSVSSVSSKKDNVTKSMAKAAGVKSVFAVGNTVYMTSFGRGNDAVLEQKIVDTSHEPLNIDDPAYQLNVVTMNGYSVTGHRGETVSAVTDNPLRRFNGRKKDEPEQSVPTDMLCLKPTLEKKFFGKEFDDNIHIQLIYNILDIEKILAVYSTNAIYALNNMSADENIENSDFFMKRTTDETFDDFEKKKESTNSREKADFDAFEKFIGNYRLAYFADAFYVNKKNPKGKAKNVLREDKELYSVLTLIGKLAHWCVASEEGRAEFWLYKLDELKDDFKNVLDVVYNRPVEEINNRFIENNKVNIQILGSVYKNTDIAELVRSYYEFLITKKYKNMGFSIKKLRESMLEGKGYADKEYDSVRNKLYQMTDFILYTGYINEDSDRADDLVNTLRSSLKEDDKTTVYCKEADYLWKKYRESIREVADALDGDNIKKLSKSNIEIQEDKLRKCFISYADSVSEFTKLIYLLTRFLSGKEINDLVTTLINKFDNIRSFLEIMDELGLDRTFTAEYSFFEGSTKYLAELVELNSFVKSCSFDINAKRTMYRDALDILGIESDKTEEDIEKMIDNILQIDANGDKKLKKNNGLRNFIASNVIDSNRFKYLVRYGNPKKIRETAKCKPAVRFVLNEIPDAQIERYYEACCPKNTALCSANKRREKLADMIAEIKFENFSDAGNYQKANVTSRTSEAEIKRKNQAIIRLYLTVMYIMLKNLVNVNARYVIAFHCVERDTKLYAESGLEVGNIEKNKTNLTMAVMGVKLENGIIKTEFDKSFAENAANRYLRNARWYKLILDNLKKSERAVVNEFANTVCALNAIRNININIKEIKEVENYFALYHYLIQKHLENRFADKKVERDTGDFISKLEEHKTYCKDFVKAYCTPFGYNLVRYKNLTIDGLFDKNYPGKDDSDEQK
- Assay protocol: crRNA (strand 1, pre-loaded); Mg2+; 40 mM Tris-HCl pH 7.5, 150 mM NaCl, 6 mM MgCl2, 1 mM DTT, 0.1% Tween-20, 0.2 mg/ml BSA; 25 C; 10 min per concentration, then washed
- Settings: tags: His6-TwinStrep-SUMO cleaved; N-terminal SNAP kept (SNAP-Surface 488); label: 3' end held by stalled T7 RNA polymerase
Listed here: items and their measured Kd.
Reported endpoint: Kd (nM)

Binder | Reported endpoint | Readout value
target 2 MT 5'PFS GGA 3'PFS CGU (mixed) RNA 1: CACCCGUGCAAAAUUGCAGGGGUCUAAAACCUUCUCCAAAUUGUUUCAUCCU RNA 2: GGGAAUGGAUCCACAUCUACGAAUUCGGAAGGAUGAAACAAUUUGGAGAAGCGUAGAUCGGAAGAGCACACGU | Kd | 19.9
target 1 U3C,C6G (mixed) RNA 1: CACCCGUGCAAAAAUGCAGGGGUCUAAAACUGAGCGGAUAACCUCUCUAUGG RNA 2: GGGAAUGGAUCCACAUCUACGAAUUCGUACCAUAGAGAGGUUAUCGGCCCACCGAGAUCGGAAGAGCACACGU | Kd | 12.1
target 1 MT 5'PFS GCU 3'PFS UCC (mixed) RNA 1: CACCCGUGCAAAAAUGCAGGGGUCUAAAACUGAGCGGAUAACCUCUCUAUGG RNA 2: GGGAAUGGAUCCACAUCUACGAAUUCGCUCCAUAGAGAGGUUAUCCGCUCAUCCAGAUCGGAAGAGCACACGU | Kd | 37.5
target 1 C4A,C22G (mixed) RNA 1: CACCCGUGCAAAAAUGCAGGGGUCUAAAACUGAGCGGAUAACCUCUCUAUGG RNA 2: GGGAAUGGAUCCACAUCUACGAAUUCGUAGCAUAGAGAGGUUAUCCGAUCACCGAGAUCGGAAGAGCACACGU | Kd | 25
